- method notes: Stability of the compound in simulated intestinal fluid at pH 6.8 assessed as half life measured up to 24 hrs by RP-HPLC-UV analysis
- Assay type: ADME
Where a SMILES comes first, the peptide text is derived from it. Bridges are numbered along the chain shown (N, C = ends).
Listed here are compounds together with their documented log10(half-life).
value type: log10(half-life) (log10 of the value in h)

compound	log10(half-life)
CC[C@H](C)[C@@H]1NC(=O)[C@H](CCC(=O)O)NC(=O)[C@@H]2CCCN2C(=O)[C@H](Cc2c[nH]cn2)NC(=O)[C@H](CC(=O)O)NC(=O)[C@H](Cc2ccc(O)cc2)NC(=O)[C@H](CC(N)=O)NC(=O)[C@@H]2CSSC[C@@H]3NC(=O)CNC(=O)CNC(=O)CNC(=O)[C@H](C)NC(=O)[C@H](C)NC(=O)CNC(=O)CNC(=O)[C@@H](CSSC[C@H](NC3=O)C(=O)N[C@@H](CO)C(=O)N[C@@H](CC(=O)O)C(=O)N3CCC[C@H]3C(=O)N[C@@H](CCCNC(=N)N)C(=O)N2)NC1=O	0.18
CC[C@H](C)[C@@H]1NC(=O)[C@H](CCC(=O)O)NC(=O)[C@@H]2CCCN2C(=O)[C@H](Cc2cnc[nH]2)NC(=O)[C@H](CC(=O)O)NC(=O)[C@H](Cc2ccc(O)cc2)NC(=O)[C@H](CC(N)=O)NC(=O)[C@@H]2CSSC[C@H](NC(=O)CN)C(=O)N[C@@H](CSSC[C@@H](C(N)=O)NC1=O)C(=O)N[C@@H](CO)C(=O)N[C@@H](CC(=O)O)C(=O)N1CCC[C@H]1C(=O)N[C@@H](CCCNC(=N)N)C(=O)N2	0.38
CC[C@H](C)[C@@H]1NC(=O)[C@@H]2CCCN2C(=O)[C@@H]2CCCN2C(=O)[C@H]([C@@H](C)CC)NC(=O)[C@H](CO)NC(=O)[C@H](CCCCN)NC(=O)[C@H]([C@@H](C)O)NC(=O)[C@@H]2CSSC[C@H](NC1=O)C(=O)N[C@@H](Cc1ccc(OC)cc1)C(=O)N[C@@H](Cc1ccccc1)C(=O)N[C@@H](CCC(N)=O)C(=O)N[C@@H](CC(N)=O)C(=O)N[C@@H](CCCNC(=N)N)C(=O)N1CCC[C@H]1C(=O)N[C@@H](CCCNC(=N)N)C(=O)N2 (cyclo(CTKSIPPICY(Me)FQNRPR); disulfide 1-9)	-1.30
CC[C@H](C)[C@@H]1NC(=O)[C@H](Cc2ccc(O)cc2)NC(=O)[C@@H](N)CSSC[C@@H](C(=O)N2CCC[C@H]2C(=O)N[C@@H](CC(C)C)C(=O)N(C)CC(N)=O)NC(=O)[C@H](CC(N)=O)NC(=O)[C@H](CCC(N)=O)NC1=O	0.46
CC[C@H](C)[C@@H]1NC(=O)[C@H](Cc2ccc(O)cc2)NC(=O)[C@@H]2CSSC[C@H](NC(=O)[C@H](CC(N)=O)NC(=O)[C@H](CCC(N)=O)NC1=O)C(=O)N1CCC[C@H]1C(=O)N[C@@H](CC(C)C)C(=O)NCC(=O)N2	-0.93
CC[C@H](C)[C@@H]1NC(=O)[C@H](Cc2ccc(O)cc2)NC(=O)[C@@H](N)CSSC[C@@H](C(=O)N2CCC[C@H]2C(=O)N[C@H](CC(=O)NCC(N)=O)CC(C)C)NC(=O)[C@H](CC(N)=O)NC(=O)[C@H](CCC(N)=O)NC1=O	0.56
CC[C@H](C)[C@@H]1NC(=O)[C@H](Cc2ccc(O)cc2)NC(=O)[C@@H](N)CSSC[C@@H](C(=O)N2CCC[C@H]2C(=O)N[C@@](C)(CC(C)C)C(=O)NCC(N)=O)NC(=O)[C@H](CC(N)=O)NC(=O)[C@H](CCC(N)=O)NC1=O	0.64

====

- method notes: Stability of the compound in simulated intestinal fluid at pH 6.8 assessed as half life measured up to 24 hrs by RP-HPLC-UV analysis
- Assay type: ADME
Where a SMILES comes first, the peptide text is derived from it.
value type: half-life

compound	value type	value observed
CC[C@@H](C)[C@H]1NC(=O)[C@@H](Cc2ccc(O)cc2)NC(=O)[C@H](N)CSSC[C@H](C(=O)N2CCC[C@@H]2C(=O)N[C@H](CC(C)C)C(=O)NCC(N)=O)NC(=O)[C@@H](CC(N)=O)NC(=O)[C@@H](CCC(N)=O)NC1=O	half-life	> 24 h
[H][C@@]12CCCN1C(=O)[C@@H]1CSSC[C@H](NC(=O)CNC(=O)[C@H](C)NC(=O)CNC(=O)[C@H](C)NC(=O)CNC(=O)[C@H](C)NC(=O)CNC(=O)[C@H](CC(C)C)NC2=O)C(=O)N[C@@H](Cc2ccc(O)cc2)C(=O)N[C@@H]([C@@H](C)CC)C(=O)N[C@@H](CCC(N)=O)C(=O)N[C@@H](CC(N)=O)C(=O)N1 (HELM PEPTIDE1{A.G.A.G.A.G.C.Y.I.Q.N.C.P.L.G}$PEPTIDE1,PEPTIDE1,7:R3-12:R3|PEPTIDE1,PEPTIDE1,1:R1-15:R2$$$V2.0)	half-life	< 0.05 h
CC(C)C[C@@H]1NC(=O)[C@H](CCC(=O)O)NC(=O)[C@@H](NC(=O)[C@H](CCC(=O)O)NC(=O)[C@H](CC(=O)O)NC(=O)[C@H](N)CC(N)=O)CSSC[C@@H]2NC(=O)[C@H](C)NC(=O)[C@H](C(C)C)NC(=O)[C@H](CC(N)=O)NC(=O)[C@H](C(C)C)NC(=O)[C@H](CSSC[C@@H](C(=O)N[C@H](CC(C)C)C(=O)O)NC(=O)CNC(=O)[C@H]([C@@H](C)O)NC2=O)NC1=O	half-life	> 24 h
